This listing pairs compounds with measured Dmax.
Biological target: HiBit-BRG1 fusion protein (Homo sapiens)
Construct: expressed in transfected cells
Experiment: HiBiT-BRG1 cell-based degradation assay (Nano-Glo HiBiT Lytic Detection, 24 h)
Conditions: HeLa cell line expressing HiBit-BRG1 and LgBit, read-out: BRG1 HiBit Degradation Maximum (%)

Compound	Dmax
Cc1ncsc1-c1ccc(CNC(=O)[C@@H]2C[C@@H](O)CN2C(=O)[C@@H](NC(=O)CCCCCCC(=O)N2CC(c3cc4cc(-c5ccccc5O)nnc4[nH]3)C2)C(C)(C)C)cc1	< 50%
Cc1ncsc1-c1ccc([C@H](C)NC(=O)[C@@H]2C[C@@H](O)CN2C(=O)[C@@H](c2cc(OCCN(C)CCN3CC(c4cc5cc(-c6ccccc6O)nnc5[nH]4)C3)no2)C(C)C)cc1 (racemic)	< 50%
Cc1ncsc1-c1ccc([C@H](C)NC(=O)[C@@H]2C[C@@H](O)CN2C(=O)[C@@H](c2cc(OCCN(C)[C@@H]3CCc4[nH]c5nnc(-c6ccccc6O)cc5c4C3)no2)C(C)C)cc1	< 50%

====

Molecular target: HiBit-BRG1 fusion protein (Homo sapiens, UniProt P51532)
Construct: expressed in transfected cells
Sequence (P51532 whole entry, the tested form may be a part): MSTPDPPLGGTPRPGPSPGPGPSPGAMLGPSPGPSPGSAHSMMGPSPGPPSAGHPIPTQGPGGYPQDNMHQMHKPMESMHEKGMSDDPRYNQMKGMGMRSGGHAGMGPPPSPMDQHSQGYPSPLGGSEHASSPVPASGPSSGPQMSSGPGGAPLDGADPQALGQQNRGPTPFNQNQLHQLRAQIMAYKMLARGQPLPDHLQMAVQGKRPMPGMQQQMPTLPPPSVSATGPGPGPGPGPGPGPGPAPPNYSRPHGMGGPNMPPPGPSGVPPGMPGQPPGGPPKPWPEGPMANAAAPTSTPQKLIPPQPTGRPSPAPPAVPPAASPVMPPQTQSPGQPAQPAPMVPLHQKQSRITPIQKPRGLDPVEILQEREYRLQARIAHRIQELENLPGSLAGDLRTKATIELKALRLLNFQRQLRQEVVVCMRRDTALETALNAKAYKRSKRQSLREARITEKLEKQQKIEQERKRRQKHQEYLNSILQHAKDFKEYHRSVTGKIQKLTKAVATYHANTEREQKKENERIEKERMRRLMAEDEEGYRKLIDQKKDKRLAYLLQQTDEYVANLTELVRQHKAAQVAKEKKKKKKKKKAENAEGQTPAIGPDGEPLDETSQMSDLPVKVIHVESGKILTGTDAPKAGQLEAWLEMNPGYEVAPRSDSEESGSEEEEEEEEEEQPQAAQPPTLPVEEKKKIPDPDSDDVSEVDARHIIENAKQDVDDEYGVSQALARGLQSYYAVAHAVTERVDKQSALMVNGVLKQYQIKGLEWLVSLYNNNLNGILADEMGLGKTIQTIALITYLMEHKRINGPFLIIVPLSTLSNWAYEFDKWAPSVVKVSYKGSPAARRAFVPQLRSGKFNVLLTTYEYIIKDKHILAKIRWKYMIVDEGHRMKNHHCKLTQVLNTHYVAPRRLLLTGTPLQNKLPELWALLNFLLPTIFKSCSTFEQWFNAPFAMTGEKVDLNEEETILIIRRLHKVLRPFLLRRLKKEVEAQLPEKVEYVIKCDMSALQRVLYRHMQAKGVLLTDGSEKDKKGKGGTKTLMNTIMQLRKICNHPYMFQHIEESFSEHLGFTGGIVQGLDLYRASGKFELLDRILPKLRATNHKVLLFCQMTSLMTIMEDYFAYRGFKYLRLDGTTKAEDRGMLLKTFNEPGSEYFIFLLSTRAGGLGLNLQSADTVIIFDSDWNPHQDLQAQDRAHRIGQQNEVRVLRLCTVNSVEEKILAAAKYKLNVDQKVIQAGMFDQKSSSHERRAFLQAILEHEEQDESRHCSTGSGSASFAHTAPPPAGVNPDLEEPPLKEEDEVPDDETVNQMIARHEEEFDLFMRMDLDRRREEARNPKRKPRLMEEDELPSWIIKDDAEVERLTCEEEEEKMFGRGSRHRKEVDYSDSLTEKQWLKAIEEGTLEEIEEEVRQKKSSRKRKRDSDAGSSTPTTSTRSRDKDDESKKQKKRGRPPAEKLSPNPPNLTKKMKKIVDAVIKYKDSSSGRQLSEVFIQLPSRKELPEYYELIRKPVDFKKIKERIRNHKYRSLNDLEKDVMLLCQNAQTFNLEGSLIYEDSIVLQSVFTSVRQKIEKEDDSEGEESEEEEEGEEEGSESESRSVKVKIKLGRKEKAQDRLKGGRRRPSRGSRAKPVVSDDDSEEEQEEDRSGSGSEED
Assay: HiBiT-BRG1 cell-based degradation assay (Nano-Glo HiBiT Lytic Detection, 24 h)
Conditions: HeLa cell line expressing HiBit-BRG1 and LgBit, read-out: BRMG1 HiBit Degradation IC50
Measured DC50, listed per entry for reference.

Compound	DC50
Cc1ncsc1-c1ccc([C@H](C)NC(=O)[C@@H]2C[C@@H](O)CN2C(=O)[C@@H](c2cc(N3CCC(CN(C)[C@H]4CCc5[nH]c6nnc(-c7ccccc7O)cc6c5C4)CC3)no2)C(C)C)cc1 [Compound 107]	> 10 nM
Cc1ncsc1-c1ccc([C@H](C)NC(=O)[C@@H]2C[C@@H](O)CN2C(=O)[C@@H](c2cc(OCCN3CCC(c4[nH]c5nnc(-c6ccccc6O)cc5c4C)CC3)no2)C(C)C)cc1 (racemic) [Compound 270]	> 10 nM
Cc1ncsc1-c1ccc([C@H](C)NC(=O)[C@@H]2C[C@@H](O)CN2C(=O)[C@@H](c2cc(N3CCN(C(=O)CN4CC(c5cc6cc(-c7ccccc7O)nnc6[nH]5)C4)CC3)no2)C(C)C)cc1 (racemic) [Compound 269]	> 100 nM
Cc1ncsc1-c1ccc([C@H](C)NC(=O)[C@@H]2C[C@@H](O)CN2C(=O)[C@@H](c2cc([C@H]3CC[C@H](c4cnc(N5CCC(c6c[nH]c7nnc(-c8ccccc8O)cc67)CC5)nc4)CC3)no2)C(C)C)cc1 (racemic) [Compound 67]	> 10 nM
Cc1ncsc1-c1ccc(CNC(=O)[C@@H]2C[C@@H](O)CN2C(=O)[C@@H](NC(=O)CCNC23CC(c4cc5cc(-c6ccccc6O)nnc5[nH]4)(C2)C3)C(C)(C)C)cc1 (racemic) [Compound 296]	> 1000 nM
Cc1ncsc1-c1ccc([C@H](C)NC(=O)[C@@H]2C[C@@H](O)CN2C(=O)[C@@H](c2cc(N3CCC(C(=O)N[C@H]4CCc5[nH]c6nnc(-c7ccccc7O)cc6c5C4)CC3)no2)C(C)C)cc1 [Compound 144]	> 100 nM
Cc1ncsc1-c1ccc([C@H](C)NC(=O)[C@@H]2C[C@@H](O)CN2C(=O)[C@@H](c2cc(N3CCN(CCC(=O)N4CC(c5c[nH]c6nnc(-c7ccccc7O)cc56)C4)CC3)no2)C(C)C)cc1 (racemic) [Compound 251]	> 100 nM
Cc1ncsc1-c1ccc([C@H](C)NC(=O)[C@@H]2C[C@@H](O)CN2C(=O)[C@@H](c2cc(OCCN(C)CC34CC(c5cc6cc(-c7ccccc7O)nnc6[nH]5)(C3)C4)no2)C(C)C)cc1 (racemic) [Compound 246]	> 100 nM
Cc1ncsc1-c1ccc([C@H](C)NC(=O)[C@@H]2C[C@@H](O)CN2C(=O)[C@@H](c2cc(OCCN3CC4(CC(c5c[nH]c6nnc(-c7ccccc7O)cc56)C4)C3)no2)C(C)C)cc1 (racemic) [Compound 304]	> 100 nM
